# assayTarget: NPC intracellular cholesterol transporter 1 (Homo sapiens, UniProt O15118)
# Sequence (O15118 whole entry): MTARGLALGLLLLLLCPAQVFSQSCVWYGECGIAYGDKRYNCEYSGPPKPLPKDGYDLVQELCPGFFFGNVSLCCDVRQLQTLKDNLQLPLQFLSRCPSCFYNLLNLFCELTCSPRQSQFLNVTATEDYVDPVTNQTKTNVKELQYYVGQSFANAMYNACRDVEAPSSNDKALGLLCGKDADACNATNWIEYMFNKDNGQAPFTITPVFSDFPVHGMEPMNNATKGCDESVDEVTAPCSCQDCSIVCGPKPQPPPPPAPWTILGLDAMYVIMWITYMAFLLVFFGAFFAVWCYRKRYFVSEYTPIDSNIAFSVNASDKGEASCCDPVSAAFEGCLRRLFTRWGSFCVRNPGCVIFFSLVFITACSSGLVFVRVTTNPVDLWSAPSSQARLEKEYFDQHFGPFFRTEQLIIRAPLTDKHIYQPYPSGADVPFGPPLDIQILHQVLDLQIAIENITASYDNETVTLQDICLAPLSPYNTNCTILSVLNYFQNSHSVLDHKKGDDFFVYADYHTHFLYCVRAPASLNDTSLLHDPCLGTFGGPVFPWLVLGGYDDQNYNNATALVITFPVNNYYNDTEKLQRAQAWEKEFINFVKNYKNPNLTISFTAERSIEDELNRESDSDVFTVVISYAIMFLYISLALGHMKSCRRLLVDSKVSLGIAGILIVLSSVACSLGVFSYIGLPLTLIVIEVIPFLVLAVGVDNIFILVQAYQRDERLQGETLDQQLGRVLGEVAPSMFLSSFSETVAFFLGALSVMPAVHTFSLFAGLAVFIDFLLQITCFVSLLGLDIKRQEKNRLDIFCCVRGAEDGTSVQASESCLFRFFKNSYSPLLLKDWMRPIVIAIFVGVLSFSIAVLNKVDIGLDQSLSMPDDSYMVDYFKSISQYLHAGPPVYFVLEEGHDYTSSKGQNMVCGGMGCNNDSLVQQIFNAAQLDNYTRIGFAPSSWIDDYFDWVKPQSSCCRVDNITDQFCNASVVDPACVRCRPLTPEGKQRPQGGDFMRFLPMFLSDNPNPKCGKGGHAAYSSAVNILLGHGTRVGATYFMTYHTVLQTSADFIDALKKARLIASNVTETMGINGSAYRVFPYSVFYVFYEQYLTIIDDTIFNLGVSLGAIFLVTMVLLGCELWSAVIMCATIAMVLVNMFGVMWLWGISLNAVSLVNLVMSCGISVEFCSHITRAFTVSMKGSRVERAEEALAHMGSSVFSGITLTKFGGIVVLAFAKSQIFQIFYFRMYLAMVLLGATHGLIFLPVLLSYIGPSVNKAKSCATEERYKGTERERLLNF
# assayInfo: Binding affinity to NPC1 (unknown origin)
quantityKind: pEC50
pEC50 is defined as minus the log10 of a concentration measured in mol/L.

Task: Query: pEC50; subject: "C[C@H](CCC(=O)N(C)C)[C@H]1CC[C@H]2[C@@H]3CC=C4C[C@@H](OC(=O)N(CCO)CCO)CC[C@]4(C)[C@H]3CC[C@]12C"
Result: 5.80
